# EXPERIMENT DESCRIPTION: self-splicing fitness, log relative to wild type (ln ratio); higher = more splicing; Tetrahymena group I intron in knt gene, E. coli kanamycin selection, DiMSum; sequences stand for … in CUCUCU…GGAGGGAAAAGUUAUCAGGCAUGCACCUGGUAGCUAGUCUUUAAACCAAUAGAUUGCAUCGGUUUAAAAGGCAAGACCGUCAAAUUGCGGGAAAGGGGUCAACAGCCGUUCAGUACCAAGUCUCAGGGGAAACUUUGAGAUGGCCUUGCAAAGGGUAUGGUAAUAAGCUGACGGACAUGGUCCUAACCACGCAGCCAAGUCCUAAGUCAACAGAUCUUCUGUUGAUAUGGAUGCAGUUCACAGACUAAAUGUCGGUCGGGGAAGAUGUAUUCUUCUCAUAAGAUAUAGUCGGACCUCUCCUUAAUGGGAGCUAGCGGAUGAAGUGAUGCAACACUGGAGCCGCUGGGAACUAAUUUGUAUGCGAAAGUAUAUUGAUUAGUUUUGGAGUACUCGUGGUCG;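 note: selection with 25 µg/mL kanamycin versus none on LB agar overnight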
# RECORDED CONDITIONS: 30 °C
READOUT LABEL: self-splicing fitness (ln)

A selection of reference data follows.
GACAAGCAAUAUUACGAUGC: -1.44
GUCCAGCAAUAUUACGAAGA: -0.611
GGCUAGCAAUAUUACGUUAC: -1.55
UUGUAGCAAUAUUACGUACG: -1.24
UUCCAGCAAUAUUACGACGG: -2.74
CACAAGCAAUAUUACGAUGC: -4.12

We next turn to a different sequence, shown below.
Returns the measured self-splicing fitness (ln) for the input sequence. Input: `UAAUAGCAAUAUUACGCCAC` -1.32
